Provenance of the data: the SangsterLogP compilation

Hi there, I'd appreciate the recorded logD for every entry that follows.
Experiment: method code SF-AS, from DOI: 10.1098/rspb.1976.0034, PMID: 5728
Settings: pH 4.5
One number for each entry.

Example entries and their recorded answers appear below.
input_smiles=CCCCNC(=O)c1ccc(S(N)(=O)=O)cc1 value_reported=1.05
input_smiles=CCCc1ccc(S(N)(=O)=O)cc1 value_reported=1.64
input_smiles=CCOC(=O)c1ccc(S(N)(=O)=O)cc1 value_reported=1.17

The following compounds each have a reported value; give each one's logD.
1. CNC(=O)c1ccc(S(N)(=O)=O)cc1
2. CCCCOC(=O)c1ccc(S(N)(=O)=O)cc1
3. CCc1ccc(S(N)(=O)=O)cc1

a:
1. -0.31
2. 2.34
3. 1.31

Give logD for all compounds that follow.
1. CCCNC(=O)c1ccc(S(N)(=O)=O)cc1
2. CCCCc1ccc(S(N)(=O)=O)cc1
3. CCCCCCNC(=O)c1ccc(S(N)(=O)=O)cc1
4. CCCCCNC(=O)c1ccc(S(N)(=O)=O)cc1
5. CCCOC(=O)c1ccc(S(N)(=O)=O)cc1
6. CCCCCOC(=O)c1ccc(S(N)(=O)=O)cc1

a:
1. 0.51
2. 2.45
3. 2.05
4. 1.51
5. 1.75
6. 2.71

q: # logD lookup, item CCNC(=O)c1ccc(S(N)(=O)=O)cc1
a: 0.03
